molecular target: Torpedo californica AChE (TcAChE) (Tetronarce californica)
Sequence (P04058 22-586): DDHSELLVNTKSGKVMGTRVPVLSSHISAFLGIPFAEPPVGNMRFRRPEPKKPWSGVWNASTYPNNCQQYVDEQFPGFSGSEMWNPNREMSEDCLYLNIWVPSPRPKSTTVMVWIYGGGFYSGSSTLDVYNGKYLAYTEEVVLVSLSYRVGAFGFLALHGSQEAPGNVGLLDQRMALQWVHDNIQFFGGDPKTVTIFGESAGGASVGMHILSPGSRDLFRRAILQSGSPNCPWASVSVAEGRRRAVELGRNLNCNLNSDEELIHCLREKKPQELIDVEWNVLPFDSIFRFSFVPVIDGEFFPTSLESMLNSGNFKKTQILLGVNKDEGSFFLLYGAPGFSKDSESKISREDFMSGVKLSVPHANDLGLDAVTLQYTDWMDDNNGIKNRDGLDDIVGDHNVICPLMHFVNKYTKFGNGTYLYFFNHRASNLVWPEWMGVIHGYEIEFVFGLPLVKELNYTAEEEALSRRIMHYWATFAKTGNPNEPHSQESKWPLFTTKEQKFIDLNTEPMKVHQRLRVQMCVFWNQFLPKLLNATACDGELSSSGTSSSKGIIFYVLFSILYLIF

| MOLECULE | IC50, µM |
| --- | --- |
| CC(C1CCC2C3CCC4CC(O)CCC4(C)C3CCC21C)N(C)C (stereo not shown) | 42.9 |

---

test: MTT cytotoxicity test; conditions: bovine, MDBK adherent cells
REPORTED METRIC: IC50 at 72 h (µg/mL)

| MOLECULE | REPORTED METRIC | REPORTED |
| --- | --- | --- |
| CC(C1CCC2C3CCC4CC(O)CCC4(C)C3CCC21C)N(C)C (stereo not shown) | IC50 at 72 h | 2.24 |

---

target: BChE (horse serum) (Equus caballus); experiment: biochemical
pIC50: −log10 of the molar value.
REPORTED METRIC: pIC50

| COMPOUND | REPORTED METRIC | REPORTED |
| --- | --- | --- |
| CC(C1CCC2C3CCC4CC(O)CCC4(C)C3CCC21C)N(C)C (stereo not shown) | pIC50 | 5.05 |

---

biological target: BChE (horse serum) (Equus caballus, UniProt P81908); test: biochemical
Sequence (P81908 whole entry): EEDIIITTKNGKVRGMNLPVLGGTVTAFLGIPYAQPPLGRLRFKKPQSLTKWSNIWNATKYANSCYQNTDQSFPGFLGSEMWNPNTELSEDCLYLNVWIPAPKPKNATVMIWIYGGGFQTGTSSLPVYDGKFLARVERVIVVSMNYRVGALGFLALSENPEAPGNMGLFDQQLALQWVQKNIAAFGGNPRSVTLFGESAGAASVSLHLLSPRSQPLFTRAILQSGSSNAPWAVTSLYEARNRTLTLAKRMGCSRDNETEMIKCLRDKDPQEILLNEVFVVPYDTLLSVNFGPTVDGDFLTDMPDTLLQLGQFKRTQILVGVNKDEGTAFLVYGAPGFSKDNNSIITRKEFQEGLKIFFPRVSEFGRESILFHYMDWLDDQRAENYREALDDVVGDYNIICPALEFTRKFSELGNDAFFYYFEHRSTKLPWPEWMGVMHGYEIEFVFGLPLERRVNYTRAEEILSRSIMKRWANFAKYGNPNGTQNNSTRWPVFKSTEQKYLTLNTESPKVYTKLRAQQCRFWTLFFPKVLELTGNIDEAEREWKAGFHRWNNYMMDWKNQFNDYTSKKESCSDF
REPORTED METRIC: Ki (µM)

| MOLECULE | UNITS | REPORTED |
| --- | --- | --- |
| CC(C1CCC2C3CCC4CC(O)CCC4(C)C3CCC21C)N(C)C (stereo not shown) | µM | 4.66 |
